Origin of measurements: PubChem BioAssay (NCI)

System: SF-268 CNS
Assay: NCI-60 one-dose screen, 48 h (100 = growth as untreated, 0 = no growth, -100 = all killed)
Details: 10 µM unless noted
About 83,000 compounds went through this panel and 20% of them were active in at least one assay; those are over-represented in the sample as a whole.
Classification field: Condition met = growth at or over 90%; Condition not met = growth under 90%.

• CC1=C(C(=O)OCC2CCN(C(=O)OC(C)(C)C)CC2)[C@H](c2cccc(C#N)c2)C2=C(CC(C)(C)CC2=O)N1 = Condition not met
• COc1ccc(C(=O)C2CC2c2ccc(Cl)cc2)cc1 (stereo not given) = Condition not met
• COc1cc(CNC(=O)c2ccsc2Nc2ccnc(C(F)(F)F)c2)ccc1O = Condition met
• O=Cc1c(OCc2cnnn2CC(=O)Nc2ccc(Br)cc2)ccc2ccccc12 = Condition met
• O=c1c2cc(F)cc(Cl)c2sc2c(Cl)nc3ccccc3c12 = Condition met
• O=C(CN1C(=O)/C(=C\c2ccc(Cl)cc2)SC1=S)Nc1ncc(Cc2ccc(Cl)cc2)s1 = Condition met
• Cc1ccc(S(=O)c2ccc([N+](=O)[O-])c3nonc23)cc1 (stereo not given) = Condition met
• O=C(c1ccccc1)N(CCc1ccc(Cl)cc1)C(=S)N(C(=O)c1ccccc1)c1ccccc1 = Condition met
• O=C(Nc1ccc(N2CCNCC2)cc1)c1[nH]ncc1Nc1cc(Oc2ccccc2)ncn1 = Condition not met
• Nc1ccc(-c2ccc(-c3ccccc3N)c3[nH]c4ccccc4c23)cc1 = Condition not met

###

Test system: HCC-2998 colon
Experiment: NCI-60 one-dose screen, 48 h
Details: 10 µM unless noted
Compounds without any hit were thinned out: in the full panel of roughly 83,000, 20% have a hit. The source made the active and inactive calls. The calls were made as follows: active = growth percent below 10; inactive = the rest.
Classes used: active, inactive

* CSc1nc2c(c(=O)[nH]1)N=C1c3ccccc3C(=O)C1C(c1ccc(F)cc1)N2 (stereo not given) | inactive
* C#CCn1cc(C=C2C(=O)NC(=O)NC2=O)c2cc(Cl)ccc21 | inactive
* COc1ccc2sc(N(Cc3cccnc3)C(=O)c3ccc(C#N)cc3)nc2c1 | inactive
* COc1c(B(O)O)cccc1-c1nc2ccc3n[nH]c(F)c3c2c2c1CCCC2 | inactive
* O=C(CN1C=NC2C(N3CCOCC3)=NC=NC21)c1ccc(Br)cc1 (stereo not given) | inactive
* Nc1nc(-c2cnccn2)nn1-c1nc2ccccc2s1 | inactive
* O=C(Nc1ccc(N2CCNCC2)cc1)c1[nH]ncc1Nc1cc(Oc2ccccc2)ncn1 | active
* COc1ccc(-c2nc(N3CCN(C(=O)C4CCCCC4)CC3)c3c4c(sc3n2)CCCC4)cc1 | inactive
* O=C(Nc1ccc(Cl)cc1)N1CCN(c2ccc3nncn3n2)CC1 | active
* O=c1oc2ccc(F)cc2c(=O)n1-c1ccc(I)cc1F | inactive

###

Tested on: SK-MEL-2 melanoma
Assay: NCI-60 one-dose screen, 48 h (100 = growth as untreated, 0 = no growth, -100 = all killed)
Conditions: 10 µM unless noted
About 83,000 compounds went through this panel and 20% of them were active in at least one assay; those are over-represented in the sample as a whole.
compounds and their reported growth
Outcome measure: growth (%)

* O=C(Nc1ccc(Cl)cc1F)c1cc(I)ccc1O | -19.3
* O=C(/C=C/c1ccc(Cl)cc1)c1ccc(Nc2nc(NCCO)nc(N3CCOCC3)n2)cc1 | 109
* CC[C@]1(O)C[C@@H]2CN(CCc3c([nH]c4ccccc34)[C@@](C(=O)OC)(c3cc4c(cc3OC)N(C)[C@H]3[C@@](O)(C(=O)OC)[C@H](OC(=O)CCCBr)[C@]5(CC)C=CCN6CC[C@]43[C@@H]65)C2)C1 | 13.6
* COc1cc(/C=C/C(=O)N2c3ccccc3CC2C)c(OC)c2c1OCO2 (stereo unspecified) | 98.6
* FC(F)(F)c1cccc(Nc2nc3ccccc3nc2Nc2cccc(C(F)(F)F)c2)c1 | -62.5
* COc1ccccc1C(=O)/C=C/c1ccccc1 | 104

###

System: HS 578T breast
Assay: NCI-60 one-dose screen, 48 h (100 = growth as untreated, 0 = no growth, -100 = all killed)
Conditions: 10 µM unless noted
This is part of a sample that, as a whole, favours compounds with a hit. Of some 83,000 tested, about 20% had one in any assay.
Outcome measure: growth (%)

• COc1ccc2[nH]c(O)c(N=NC(=O)c3oc4ccccc4c3C)c2c1 = 25.5
• CC1CCCCN1CCCNC(=O)c1ccc2c(c1)sc1nc(-c3ccc(F)cc3)cn12 (stereo not given) = 98.5
• COc1ccccc1N1CCN(C(CNS(=O)(=O)c2ccc(Cl)cc2)c2cccnc2)CC1 (stereo not given) = 88.3
• O=NN(C(=O)NC1CCC(C(=O)O)CC1)C1CCC(C(=O)O)CC1 (stereo not given) = 107
• CN1C(=O)N(C)C2C1NN=c1s/c(=C\c3ccc([N+](=O)[O-])cc3)c(=O)n12 (stereo not given) = 67.5
• COc1ccc(C(=O)Nc2ccc3nc(N4CCCCC4)cc(C)c3c2)cc1OC = 77.9
• O=C(/C=C/c1ccc(Cl)cc1)c1ccc(Nc2nc(NCCO)nc(N3CCOCC3)n2)cc1 = 90.7
• Oc1c(C(Nc2ccccn2)c2cccc(Oc3ccccc3)c2)ccc2cccnc12 (stereo not given) = -47.6
• CC1(C)CC2(C)OC2C2(C1)N=NC(=Nc1ccccc1)O2 (stereo not given) = 103
• CCCCCCC(O)(c1ccc(F)cc1)C(CN1CCOCC1)c1ccccc1 (stereo not given) = 51.6

###

System: UO-31 renal
Assay: NCI-60 one-dose screen, 48 h
Conditions: 10 µM unless noted
About 83,000 compounds went through this panel and 20% of them were active in at least one assay; those are over-represented in the sample as a whole. The source made the active and inactive calls. How the source made its calls: active means growth percent below 10; inactive means the rest.
Classes used: true for active, false for inactive

* O=S1(=O)N(Cc2ccccc2)[C@@H](Cc2ccccc2)C2O[C@H]2[C@H](Cc2ccccc2)N1Cc1ccccc1 (stereo not given in full) | false
* CCCN1CCN(c2ccc3nc(-c4ccc5nc(-c6cc(OC)ccc6OC)[nH]c5c4)[nH]c3c2)CC1 | false
* O=c1oc2ccc(Cl)cc2c(=O)n1-c1ccc(F)cc1F | true
* Clc1ccc(-c2nnc(COc3ccc(C4=NNC(c5ccco5)C4)cc3)o2)cc1 (stereo not given) | false
* COc1cc(C2C(C#N)=C(N)OC3=C2C(=O)c2ccccc2C3=O)cc(OC)c1OC (stereo not given) | false
* COc1c(B(O)O)cccc1-c1nc2ccc3[nH]ncc3c2c2c1C1CCC2C1 (stereo not given) | false
* COc1cc(C2C3=C(COC3=O)N(CCO)c3cc4c(cc32)CCC4)cc(OC)c1O (stereo not given) | false
* Cn1c(=O)n(C)c2cc(CNCCNc3ccnc4cc(Cl)ccc34)ccc21 | false
* Nc1ccc(-n2c(=O)oc3ccc(Cl)cc3c2=O)c(Cl)c1 | true
* COc1ccc(N)c(-c2cc3c(c4c2[nH]c2ccc(OC)cc24)CCCC3)c1 | false

###

molecules and their reported growth
Tested on: T-47D breast
Test: NCI-60 one-dose screen, 48 h (100 = growth as untreated, 0 = no growth, -100 = all killed)
Conditions: 10 µM unless noted
This is part of a sample that, as a whole, favours compounds with a hit. Of some 83,000 tested, about 20% had one in any assay.
Outcome measure: growth (%)

• COc1ccc(-c2nocc2-c2cccs2)cc1 = 75.7
• CCOc1ccc2c(c1)CN(Cc1ccc(Cl)cc1)CO2 = 52.4
• Cc1nc(Nc2ccccn2)sc1C(=O)/C=C/c1ccc(Cl)cc1 = 58.1
• COc1ccc(Cn2c(Br)c3c(c2-c2cc(OC)c(OC)c(OC)c2)CCc2sc(NC(C)=O)nc2-3)cc1 = 37.2
• COC(=O)c1c2c(c(C)[n+]([O-])c1C)C(=O)C(NCc1ccc(F)c(F)c1)=CC2=O = 10.9
• CC(=O)c1ccc(Nc2nc(NCCO)nc(Nc3ccc(Cl)cc3)n2)cc1 = 79.9
• O=C(Cn1cc(COc2ncnc3c2cnn3-c2ccccc2)nn1)Nc1ccccn1 = 80.9
• COc1ccc(CCN2C(=O)/C(=C/c3ccc(C4Oc5ccccc5C5CC(c6cccc(OC)c6)=NN54)cc3)SC2=S)cc1 (stereo not given) = 100
• O=C1/C=C/[C@@H](O)[C@@H]2C[C@@H](O)C[C@H]2/C=C/CCCCO1 = -11.1
• O=C(Nc1ccc(I)cc1F)c1cc(Br)ccc1O = -9.09

###

System: HCC-2998 colon
Experiment: NCI-60 one-dose screen, 48 h
Settings: 10 µM unless noted
The panel holds about 83,000 compounds, 20% with a hit somewhere; the sample as a whole holds those more often. Active and inactive are the calls of the source. Rule for the calls: active = growth percent below 10; inactive = the rest.
Classes used: active, inactive

• O=C(Nc1ccc(Cl)cc1F)c1cc(F)ccc1O = inactive
• O=C(Nc1ccc(F)cc1F)c1cc(I)ccc1O = inactive
• CCCCCCn1c(=N)n(CC(O)COc2cccc(C)c2)c2ccccc21 (stereo unspecified) = active
• O=C(Cn1cc(COc2ncnc3c2cnn3-c2ccccc2)nn1)Nc1cccc2ccccc12 = inactive
• O=S(=O)(c1ccc(NC(=S)NC23CC4CC(CC(C4)C2)C3)cc1)N1CCCCC1 = inactive
• O=C(NC1CCN(Cc2ccccc2)CC1)c1cc2nc(-c3ccc(Cl)s3)cc(C(F)(F)F)n2n1 = inactive
